Values were extracted from patent US9309235B2.

# target: soluble guanylate cyclase (sGC) (Homo sapiens, UniProt Q02108+Q02153)
# Construct: endogenously expressing soluble guanylate cyclase (sGC); endogenous in cells
# Sequence (Q02153 whole entry): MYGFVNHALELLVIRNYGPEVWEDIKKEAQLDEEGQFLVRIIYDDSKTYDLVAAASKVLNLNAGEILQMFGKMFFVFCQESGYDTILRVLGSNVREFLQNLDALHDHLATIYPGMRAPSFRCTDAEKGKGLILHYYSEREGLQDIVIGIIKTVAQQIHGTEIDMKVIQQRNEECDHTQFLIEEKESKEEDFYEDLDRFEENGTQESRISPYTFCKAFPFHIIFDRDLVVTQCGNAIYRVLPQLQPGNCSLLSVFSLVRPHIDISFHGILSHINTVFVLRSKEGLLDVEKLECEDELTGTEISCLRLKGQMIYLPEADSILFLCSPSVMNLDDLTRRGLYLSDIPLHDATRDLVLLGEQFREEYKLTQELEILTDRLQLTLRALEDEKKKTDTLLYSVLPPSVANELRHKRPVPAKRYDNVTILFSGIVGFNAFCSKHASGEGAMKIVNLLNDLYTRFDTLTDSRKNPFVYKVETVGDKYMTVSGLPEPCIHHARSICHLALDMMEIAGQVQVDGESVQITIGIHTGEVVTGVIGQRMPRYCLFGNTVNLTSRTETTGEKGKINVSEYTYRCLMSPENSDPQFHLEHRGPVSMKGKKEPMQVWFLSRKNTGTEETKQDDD
# Sequence (Q02108 whole entry): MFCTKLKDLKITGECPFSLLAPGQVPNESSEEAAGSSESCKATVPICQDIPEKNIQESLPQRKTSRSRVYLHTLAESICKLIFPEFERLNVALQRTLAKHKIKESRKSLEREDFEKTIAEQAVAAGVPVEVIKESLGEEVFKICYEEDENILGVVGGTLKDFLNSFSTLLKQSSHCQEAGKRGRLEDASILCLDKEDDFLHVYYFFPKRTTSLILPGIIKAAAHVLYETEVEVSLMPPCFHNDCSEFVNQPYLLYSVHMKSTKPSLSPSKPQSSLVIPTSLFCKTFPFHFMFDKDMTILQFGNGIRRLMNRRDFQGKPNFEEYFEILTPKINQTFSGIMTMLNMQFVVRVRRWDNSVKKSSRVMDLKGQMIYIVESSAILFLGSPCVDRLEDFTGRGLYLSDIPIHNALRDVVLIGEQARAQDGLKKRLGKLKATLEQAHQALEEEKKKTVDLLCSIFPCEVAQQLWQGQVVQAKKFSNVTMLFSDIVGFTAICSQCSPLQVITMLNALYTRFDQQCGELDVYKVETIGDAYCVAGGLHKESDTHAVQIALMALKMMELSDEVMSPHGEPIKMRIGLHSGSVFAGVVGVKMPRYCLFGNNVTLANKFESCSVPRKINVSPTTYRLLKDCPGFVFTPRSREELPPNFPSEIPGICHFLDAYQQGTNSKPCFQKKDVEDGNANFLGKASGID
# assay overview: sGC-HEK-cGMP assay (run with SNP incubation)
# experimental context: full concentration-response curve, top not fitted to 100%; with SNP incubation; read-out: HEK assay EC50-unconstrained
pEC50: −log10 of the molar value.
Below is a list of entries, each paired with its recorded pEC50 value.

Below: 3 compounds and their reported pEC50.
smiles str | target | pEC50
Oc1nc(-c2cc(-c3ccon3)n(Cc3sccc3F)n2)ncc1F | soluble guanylate cyclase (sGC) (Homo sapiens, UniProt Q02108+Q02153) | 7.00 to 8.00
Nc1ccnc(-c2cc(-c3ccon3)n(Cc3ccsc3)n2)n1 | soluble guanylate cyclase (sGC) (Homo sapiens, UniProt Q02108+Q02153) | 5.30 to 6.00
Oc1nc(-c2cc(-c3ccon3)n(Cc3cccs3)n2)ncc1F | soluble guanylate cyclase (sGC) (Homo sapiens, UniProt Q02108+Q02153) | 5.00 to 5.30

Consider now this further compound.
Requested field: pEC50. Item: "Oc1nc(-c2cc(-c3ccon3)n(Cc3ccsc3)n2)ncc1F"
6.00 to 6.30

----------
The following compounds are shown together with reported Emax at 1 µM values.
# target: soluble guanylate cyclase (sGC) (Homo sapiens, UniProt Q02108+Q02153)
# Construct: endogenously expressing soluble guanylate cyclase (sGC); endogenous in cells; host or cells: HEK293
# assay overview: sGC-HEK-cGMP assay (run with SNP incubation)
# Format: cell-based
# experimental context: test compound 1 μM, 10 μM SNP; Emax = 100% is BAY 41-2272 at 10 μM in the presence of 100 μM SNP; read-out: HEK assay (Percent Emax at 1 μM)

Please review the entries below; each comes with its answer.
compound | Emax at 1 µM
Oc1nc(-c2cc(-c3ccon3)n(Cc3ccsc3)n2)ncc1F [Compound I-2] | 20 to 40%
Oc1nc(-c2cc(-c3ccon3)n(Cc3cccs3)n2)ncc1F [Compound I-4] | 0 to 10%

Given the entry Oc1nc(-c2cc(-c3ccon3)n(Cc3sccc3F)n2)ncc1F [Compound I-3] , report its measured Emax at 1 µM.
40 to 60%

Which Emax at 1 µM value belongs to Nc1ccnc(-c2cc(-c3ccon3)n(Cc3ccsc3)n2)n1 [Compound I-1] ?
20 to 40%
